Target: wild type P450cam (Pseudomonas putida, UniProt P00183)
Sequence (P00183 whole entry): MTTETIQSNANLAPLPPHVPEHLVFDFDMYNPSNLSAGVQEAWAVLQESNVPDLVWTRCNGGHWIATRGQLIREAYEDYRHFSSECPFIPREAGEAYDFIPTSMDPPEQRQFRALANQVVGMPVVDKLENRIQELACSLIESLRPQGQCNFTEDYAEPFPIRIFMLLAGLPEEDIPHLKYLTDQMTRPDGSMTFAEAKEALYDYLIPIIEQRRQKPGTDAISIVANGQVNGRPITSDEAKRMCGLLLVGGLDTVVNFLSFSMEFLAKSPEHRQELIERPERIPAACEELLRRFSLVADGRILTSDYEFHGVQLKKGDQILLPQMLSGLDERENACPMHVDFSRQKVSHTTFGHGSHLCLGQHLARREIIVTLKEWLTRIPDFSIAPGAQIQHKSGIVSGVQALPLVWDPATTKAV
Format: binding
Details: Wild type; 200 μM test compound, phosphate buffer pH 7.4
quantity-measured: ΔSpin high/low (percentage of P-450 converted from low- to high-spin) (%)
Answer format: numeric, % implied, no suffix.

c1ccc(C2CCCCC2)cc1	20
CC1CCCCC1	50

Here's the next entry for you.
-- ask Quote ΔSpin high/low (percentage of P-450 converted from low- to high-spin) reported for `c1ccc(Oc2ccccc2)cc1` please.
-- reply 10

* * *

Biological target: P-450cam mutant Y96A (Pseudomonas putida, UniProt P00183, Y97A)
Sequence (P00183 2-415 Y97A): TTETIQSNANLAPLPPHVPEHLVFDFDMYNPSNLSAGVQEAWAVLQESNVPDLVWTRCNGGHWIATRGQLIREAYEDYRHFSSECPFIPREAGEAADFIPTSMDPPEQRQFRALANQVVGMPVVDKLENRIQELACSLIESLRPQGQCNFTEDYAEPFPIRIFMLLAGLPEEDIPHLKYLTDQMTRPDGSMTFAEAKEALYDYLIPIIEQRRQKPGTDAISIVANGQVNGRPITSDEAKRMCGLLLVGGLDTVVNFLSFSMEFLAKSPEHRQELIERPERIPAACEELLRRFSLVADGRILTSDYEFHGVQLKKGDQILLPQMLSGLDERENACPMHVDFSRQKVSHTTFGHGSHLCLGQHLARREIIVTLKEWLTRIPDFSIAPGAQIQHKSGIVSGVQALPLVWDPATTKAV
Experiment: biochemical
Assay type: binding
Details: Mutant Y96A; 200 μM DTT, 200 μM test compound, phosphate buffer; read-out: Vs DTT (percentage displacement of DTT bound to P-450)
quantity-measured: percent displacement of bound DTT at 200 µM (%)
Output spec: scalar in %, unitless text.

Worked examples follow.
C1CC[C@H]2CCCC[C@@H]2C1 [trans-Decahydro naphthalene]	70
CCCCCCCC	45
CCCC(=O)Oc1cccc2ccccc12 [1-Naphthylbutyrate]	5

-- ask Please supply the value of reported percent displacement of bound DTT at 200 µM for the item `CCc1cccc2ccccc12`
-- reply 20

-- ask Give recorded percent displacement of bound DTT at 200 µM. `c1ccc(Oc2ccccc2)cc1`
-- reply 50

-- ask Given the molecule `O=C1c2ccccc2-c2ccccc21` , write its reported percent displacement of bound DTT at 200 µM.
-- reply 5

-- ask Given the molecule `CCCCCCCCC` , write its reported percent displacement of bound DTT at 200 µM.
-- reply 45

-- ask Return percent displacement of bound DTT at 200 µM (reported value) for this molecule: C=C(C)[C@H]1CC=C(C)C(=O)C1 [(S)-(+)-Carvone]
-- reply 80

-- ask For the molecule `CCCCCCC` , give its measured percent displacement of bound DTT at 200 µM value.
-- reply 40

-- ask Tell me measured percent displacement of bound DTT at 200 µM for c1ccc2c(c1)CCCC2 [1,2,3,4-Tetrahydro naphthalene] please.
-- reply 40

-- ask Look up and state reported percent displacement of bound DTT at 200 µM for C1=Cc2ccccc2CC1 [1,2-Dihydronaphthalene]
-- reply 90

-- ask Dear colleague, please send me the reported percent displacement of bound DTT at 200 µM for `CCCCCCCCCCCCOS(=O)(=O)O` when you can.
-- reply 60
